# Tested on: SW-620 colon
# protocol_description: NCI tumour cell line growth inhibition, 48 h
measured_quantity: GI50

>  <molecule>
CC(=O)OC[C@]12CC[C@@H](C(=O)CBr)[C@@H]1[C@H]1CC[C@@H]3[C@@]4(C)CCCNC(C)(C)[C@@H]4CC[C@@]3(C)[C@]1(C)CC2

>  <obs_value>
2.77 µM

$$$$
>  <molecule>
CCOC(=O)c1c2c(n(Cc3ccc(Cl)cc3Cl)c1C)-c1nc[nH]c1C(=O)C2=O

>  <obs_value>
6.19 µM

$$$$
>  <molecule>
CNCCCn1c2c(c3ccc([N+](=O)[O-])cc3c1=O)C(=O)c1cc(OC)cnc1-2

>  <obs_value>
0.0349 µM

$$$$
>  <molecule>
O=c1ccn(C2CC(O)C(CO)O2)c(=O)[nH]1 (stereo not given)

>  <obs_value>
> 5000 µM

$$$$
>  <molecule>
N.N.N.N.N.[Cl-].[Co+3].c1ccc(-c2nn[n-]n2)cc1

>  <obs_value>
> 100 µM

$$$$
>  <molecule>
COc1ccc(C(=O)/C=C/c2cccc([N+](=O)[O-])c2)c(OC)c1

>  <obs_value>
1.2 µM

$$$$
>  <molecule>
COc1cc2c3c(n(CCCCN)c(=O)c2cc1OC)-c1cc2c(cc1C3=O)OCO2

>  <obs_value>
0.0851 µM

$$$$
>  <molecule>
CCCCC[C@H]1C/C=C2/C(=O)C=C[C@@H]2C/C=C\CCCC(=O)O[C@@H](CCCCC)C/C=C2/C(=O)C=C[C@@H]2C/C=C\CCCC(=O)O1

>  <obs_value>
0.135 µM

$$$$
>  <molecule>
NC(=O)c1c(NC(=O)c2ccccn2)sc2c1CCC(=O)C2

>  <obs_value>
0.882 µM

$$$$
>  <molecule>
C[C@]12CCc3sc(NCCc4ccccc4)nc3C1=CC[C@@H]1[C@@H]2CC[C@]2(C)C(=O)CC[C@@H]12

>  <obs_value>
2.3 µM

$$$$
>  <molecule>
CNC(=O)c1cccc2cc(Oc3ccnc4cc(OCC5(N)CC5)c(OC)cc34)ccc12

>  <obs_value>
5.96 µM

$$$$
>  <molecule>
CCCCCCCCC/C=C/C=C/C(=O)NCC(=O)NC1C(O)C(O)C(Nc2ncnc3nc[nH]c23)OC1C(O)CO (stereo not given)

>  <obs_value>
0.00284 µM

$$$$
>  <molecule>
COc1ccc(/C=C/C(=O)c2ccc(O)c(CN3CCN(c4cc5c(cc4F)c(=O)c(C(=O)O)cn5C4CC4)CC3)c2)cc1

>  <obs_value>
1.38 µM

$$$$
>  <molecule>
Cc1cc(C(=C2C=CC(=Nc3ccccc3)C=C2)c2ccc(Nc3ccccc3)cc2)ccc1N

>  <obs_value>
0.29 µM

$$$$
>  <molecule>
CN[C@H](C#Cc1c(F)ccc2c1/C(=C/c1[nH]ccc1OC)C(=O)N2)CO

>  <obs_value>
0.476 µM

$$$$

----------
# System: HS 578T breast
# protocol_description: NCI tumour cell line growth inhibition, 48 h

>  <compound>
C=CCC1(O)c2ccccc2C(=O)c2c(NCCN(CC(=O)OCC)CC(=O)OCC)cccc21 (stereo not drawn)

>  <TGI>
> 100 µM

$$$$
>  <compound>
COc1cccc(-n2nc(C)c3c(N/N=C(\C)c4ccncc4)ncnc32)c1

>  <TGI>
> 25 µM

$$$$
>  <compound>
CCC(C)[C@H]1O[C@]2(C=C[C@@H]1C)C[C@@H]1C[C@@H](C/C=C(\C)[C@@H](OC3C[C@H](OC)C(O[C@H]4C[C@H](OC)[C@@H](O)[C@H](C)O4)[C@H](C)O3)[C@@H](C)/C=C/C=C3\CO[C@@H]4[C@H](O)C(C)=C[C@@H](C(=O)O1)[C@]34O)O2 (stereo partly drawn)

>  <TGI>
2.87 µM

$$$$
>  <compound>
O=S(=O)(Nc1ccc(Br)c(Cl)c1)c1ccc(-c2cnc(C3CC3)o2)cc1

>  <TGI>
18.3 µM

$$$$
>  <compound>
CC1=CC(=O)c2ccccc2C1=O

>  <TGI>
41.4 µM

$$$$
>  <compound>
O=C(NCCNCCCNC(=O)c1cc(-c2ccccc2)nc2ccccc12)c1cccc(O)c1O

>  <TGI>
> 100 µM

$$$$
>  <compound>
C=CCc1cccc2cc(C(=O)Nc3ccccc3)c(=N)oc12

>  <TGI>
> 100 µM

$$$$
>  <compound>
O=S(=O)(O)C(=Nc1cccc(Cc2ccccc2)c1)Nc1cccc(Cc2ccccc2)c1

>  <TGI>
45.5 µM

$$$$

----------
# Tested on: HCC-2998 colon
# protocol_description: NCI tumour cell line growth inhibition, 48 h; in the data active means GI50 below about 0.43 µM; inactive means the rest
Outcomes: active, inactive

>  <molecule>
CCCc1cc(=O)[nH]c(-n2nc(C)cc2C)n1

>  <group>
inactive

$$$$
>  <molecule>
CCC1CN2C(=N1)c1ccccc1-c1cc(Cl)ccc12 (centres undefined)

>  <group>
inactive

$$$$
>  <molecule>
CC1(N)CCN(c2cccnc2NC(=O)c2nc(-c3ncccc3C(F)(F)F)cnc2N)CC1

>  <group>
inactive

$$$$
>  <molecule>
CCOC(=O)c1cc2c(n1Cc1cccc(OC)c1)-c1oncc1CCC2

>  <group>
inactive

$$$$
>  <molecule>
Cc1cc(NCCN(C(C)C)C(C)C)nc(/N=C(\N)Nc2ccc(Cl)c(C(F)(F)F)c2)n1

>  <group>
active

$$$$
>  <molecule>
CC(=O)OC[C@]12CC[C@@H](C(=O)CBr)[C@@H]1[C@H]1CC[C@@H]3[C@@]4(C)CCCNC(C)(C)[C@@H]4CC[C@@]3(C)[C@]1(C)CC2

>  <group>
inactive

$$$$
>  <molecule>
C1COCCN1.C1COCCN1.NC1CCCCC1N.[Cl-].[Pt+2] (centres undefined)

>  <group>
inactive

$$$$
>  <molecule>
O=C(Nc1cccc(-n2cc(-c3ccncc3)c(-c3ccc(Cl)c(O)c3)n2)c1)c1ccc(N2CCOCC2)c(C(F)(F)F)c1

>  <group>
inactive

$$$$
>  <molecule>
COc1cc2c3c(n(CCCCN)c(=O)c2cc1OC)-c1cc2c(cc1C3=O)OCO2

>  <group>
inactive

$$$$

----------
# System: BT-549 breast
# protocol_description: NCI tumour cell line growth inhibition, 48 h

>  <compound>
CCN(CC(=O)O)C(=O)c1cccnc1

>  <TGI>
> 100 µM

$$$$
>  <compound>
O=C(Nc1cccc(-n2cc(-c3ccncc3)c(-c3ccc(Cl)c(O)c3)n2)c1)c1ccc(N2CCOCC2)c(C(F)(F)F)c1

>  <TGI>
> 50 µM

$$$$
>  <compound>
CCOC(=O)C1=NN(c2ccc(C)cc2)C2=CC(C)=NN(C)C(=S)N21

>  <TGI>
> 100 µM

$$$$
>  <compound>
N#Cc1c(-c2ccc([N+](=O)[O-])cc2)c(C#N)c(=O)n(NS(=O)(=O)c2ccccc2)c1-c1ccccc1

>  <TGI>
> 100 µM

$$$$
>  <compound>
CC(C)OCC1CC(CC(=O)Nc2nncs2)C(=O)O1 (stereo not given)

>  <TGI>
> 100 µM

$$$$

----------
# System: UACC-62 melanoma
# protocol_description: NCI tumour cell line growth inhibition, 48 h
measured_quantity: log10 of TGI (log10 of the value in µM)

>  <compound>
COc1ccc2c(=O)cc(-c3ccncc3)oc2c1OC

>  <obs_value>
1.51

$$$$
>  <compound>
COc1cccc2c1Cc1cc(-c3ccccc3)[n+](C)n1-2

>  <obs_value>
1.48

$$$$
>  <compound>
COc1cccc(-c2nn(-c3ccccc3)cc2-c2ccnc(NCCCNC(=O)Nc3ccc(Cl)c(Cl)c3)c2)c1

>  <obs_value>
0.60

$$$$
>  <compound>
O=C(Nc1cccc(-n2cc(-c3ccncc3)c(-c3cc(O)cc(Cl)c3)n2)c1)Nc1ccc(Cl)c(C(F)(F)F)c1

>  <obs_value>
0.64

$$$$
>  <compound>
COC(=O)[C@@]12OC[C@]34[C@H]([C@@H](O)[C@@H]1O)[C@@]1(C)[C@H](O)C(=O)C=C(C)[C@@H]1C[C@H]3OC(=O)C(OC(C)=O)[C@@H]24 (some centres undefined)

>  <obs_value>
-0.85

$$$$
